TARGET: hGLP-1R (Homo sapiens, UniProt P43220)
Sequence (P43220 24-463): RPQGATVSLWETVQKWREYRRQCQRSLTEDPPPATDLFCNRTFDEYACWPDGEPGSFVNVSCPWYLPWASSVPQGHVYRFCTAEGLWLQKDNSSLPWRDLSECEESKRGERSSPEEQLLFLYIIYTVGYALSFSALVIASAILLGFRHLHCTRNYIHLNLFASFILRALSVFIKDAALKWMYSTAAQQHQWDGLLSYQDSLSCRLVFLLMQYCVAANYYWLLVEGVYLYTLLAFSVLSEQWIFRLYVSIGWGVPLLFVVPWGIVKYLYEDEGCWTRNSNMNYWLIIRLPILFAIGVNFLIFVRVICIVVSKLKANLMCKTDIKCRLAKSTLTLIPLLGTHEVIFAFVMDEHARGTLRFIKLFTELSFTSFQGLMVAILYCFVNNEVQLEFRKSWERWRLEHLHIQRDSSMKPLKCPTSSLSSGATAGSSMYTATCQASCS
EXPERIMENT: Functional cAMP activity in the presence of 1% HSA
Type: cell-based
CONDITION SET: read-out: cAMP Rel EC50, hGLP-1R
Starred links: 1 amine or outer side, 2 acyl side, 3 side chain; linkers in the order of their positions; H or OH if unused. Non-standard residues stand in square brackets, D forms with d. Groups on a side chain read outwards from the residue. *: point of attachment. C20 diacid = O=C(O)CCCCCCCCCCCCCCCCCCC(=O)*; C18 diacid = O=C(O)CCCCCCCCCCCCCCCCC(=O)*; αMePhe(2-F) = C[C@](N)(Cc1ccccc1F)C(=O)O; γGlu = O=C(O)[C@H](CCC(=O)[*:2])N[*:1]; αMe4Pal = C[C@](N)(Cc1ccncc1)C(=O)O; αMeY = C[C@](N)(Cc1ccc(O)cc1)C(=O)O; 4Pal = N[C@@H](Cc1ccncc1)C(=O)O; αMeL = CC(C)C[C@](C)(N)C(=O)O; αMeS = C[C@](N)(CO)C(=O)O; Orn = NCCC[C@H](N)C(=O)O; AEEA = NCCOCCOCC(=O)O; Aib = CC(C)(N)C(=O)O
Measured EC50 accompanies every entry in the list below.

Completed entries (count: 6):
SUBSTANCE	ENDPOINT	MEAS VALUE
H-Y[Aib]QGT[αMePhe(2-F)]TSD[4Pal][αMeS]ILLD[Orn]K([γGlu-γGlu-C18 diacid])AQ[Aib][Orn]FI[dE]YLIEGGPSSGEPPPEGTEE-NH2 [Example 556]	EC50	0.0474 µM
H-Y[Aib]QGT[αMePhe(2-F)]TSD[4Pal][αMeS]I[αMeL]LD[Orn]K([γGlu-γGlu-C18 diacid])AQ[Aib][Orn]FI[dE][αMeY]LAEGGPSSGEPPPSGGEE-NH2 [Example 590]	EC50	0.0587 µM
H-Y[Aib]QGT[αMePhe(2-F)]TSD[4Pal][αMeS]I[αMeL]LD[Orn]K([γGlu-γGlu-C18 diacid])AQ[Aib]NFI[dE][αMeY]LQEGGPSSGEPPPEGTGE-NH2 [Example 527]	EC50	0.0268 µM
H-Y[Aib]QGTFTSD[4Pal]S[Orn][αMeL]LD[Orn]K([Glu-γGlu-C18 diacid])AQ[Aib]AFIE[αMeY]LLEGGPSSGAPPPSGSEE-NH2 [Example 1066]	EC50	1.85 µM
H-Y[Aib]QGTFTSDYSI[αMeL]LDKIAAK([AEEA-AEEA-γGlu-C20 diacid])QFVEWLLA[Aib]GPSSGEPPPSEG-NH2 [Example 324]	EC50	1.06 µM
H-Y[Aib]QGTFTSDFS[Orn][αMeL]LDKK([AEEA-γGlu-C18 diacid])AQ[Aib]AFIEWLLEGGSSSGAPPPGGT-NH2 [Example 272]	EC50	0.486 µM

Looking up H-Y[Aib]QGTFTSD[4Pal]SQ[αMeL]LDKK([γGlu-γGlu-C18 diacid])AQ[αMe4Pal]AFIEYLIE[Aib]GPSSGAPPPSGSE-NH2 [Example 890] , I found its EC50 recorded as 0.29 µM

Looking up H-Y[Aib]QGT[αMePhe(2-F)]TSD[4Pal][αMeS]I[αMeL]LD[Orn]K([AEEA-γGlu-C18 diacid])AQ[αMe4Pal]EFI[dE][αMeY]LVEGGPSSGEPPPSGSEE-NH2 [Example 736] , I found its EC50 recorded as 0.0463 µM

Looking up H-Y[Aib]QGTFTSDFS[Orn][αMeL]LDKK([AEEA-γGlu-C18 diacid])AQ[Aib]AFIEWLLEGGSSSGAPPPSGT-NH2 [Example 174] , I found its EC50 recorded as 0.208 µM

Looking up H-Y[Aib]QGT[αMePhe(2-F)]TSDYSKLLDKIAQK([AEEA-γGlu-C20 diacid])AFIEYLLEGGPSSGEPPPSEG-NH2 [Example 295] , I found its EC50 recorded as 0.232 µM

Looking up H-Y[Aib]QGTFTSD[4Pal]SQ[αMeL]LD[Orn]K([γGlu-γGlu-C18 diacid])AQ[αMe4Pal]AFIEYLIA[Aib]GPSSGEPPPSGSEE-NH2 [Example 1092] , I found its EC50 recorded as 0.23 µM
